Form field: Bliss excess (one value per entry).
Tested on: SF539 (Glioblastoma);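 further: after 72 h of two-drug dosing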
assay remarks: Bliss excess, mean over the matrix (fraction); higher = more synergy
Lab note: write the figure by itself, no unit.

Below, each entry is followed by its recorded Bliss excess result.
INSERT INTO measurements (compound, system_under_test, endpoint, quantitative_readout) VALUES
  ('Cc1nc(-c2cn3c(n2)-c2ccc(-c4cnn(C(C)(C)C(N)=O)c4)cc2OCC3)n(C(C)C)n1 [Taselisib] + O=C(Nc1ccc2[nH]nc(-c3ccncc3)c2c1)[C@@H]1CCN(CC(=O)N2CCN(c3ccc(-c4ncccn4)cc3)CC2)C1 [SCH772984] (first compound max 10 µM, 7x7, partner max 5 µM)', 'SF539 (Glioblastoma)', 'Bliss excess', 0.0465),
  ('CN(CCO)CC[C@H](CSc1ccccc1)Nc1ccc(S(=O)(=O)NC(=O)c2ccc(N3CCC([C@@H](O)c4ccccc4-c4ccc(Cl)cc4)CC3)cc2)cc1S(=O)(=O)C(F)(F)F [AZD4320] + CS(=O)(=O)CCNCc1ccc(-c2ccc3ncnc(Nc4ccc(OCc5cccc(F)c5)c(Cl)c4)c3c2)o1 [Lapatinib] (first compound max 1 µM, 7x7, partner max 10 µM)', 'SF539 (Glioblastoma)', 'Bliss excess', -0.0026),
  ('O=C(c1cc(Cc2n[nH]c(=O)c3ccccc23)ccc1F)N1CCN(C(=O)C2CC2)CC1 [Olaparib] + CC1(C)CCC(CN2CCN(c3ccc(C(=O)NS(=O)(=O)c4ccc(NCC5CCOCC5)c([N+](=O)[O-])c4)c(Oc4cnc5[nH]ccc5c4)c3)CC2)=C(c2ccc(Cl)cc2)C1 [Venetoclax] (first compound max 10 µM, 7x7, partner max 1 µM)', 'SF539 (Glioblastoma)', 'Bliss excess', -0.0105);

q: Fill in the blank: the reported Bliss excess of O=C(c1cc(Cc2n[nH]c(=O)c3ccccc23)ccc1F)N1CCN(C(=O)C2CC2)CC1 [Olaparib] + CN(CC[C@H](CSC1=CC=CC=C1)NC2=C(C=C(C=C2)S(=O)(=O)NC(=O)C3=CC=C(C=C3)N4CCC(CC4)[C@H](C5=CC=CC=C5C6=CC=C(C=C6)Cl)O)S(=O)(=O)C(F)(F)F)CCO [AZD4320] (first compound max 10 µM, 7x7, partner max 1 µM) is ____.
a: -0.017

q: Ok, now CN(CCO)CC[C@H](CSc1ccccc1)Nc1ccc(S(=O)(=O)NC(=O)c2ccc(N3CCC([C@@H](O)c4ccccc4-c4ccc(Cl)cc4)CC3)cc2)cc1S(=O)(=O)C(F)(F)F [AZD4320] + CCN(CCO)CCCOc1ccc2c(Nc3cc(CC(=O)Nc4cccc(F)c4)[nH]n3)ncnc2c1 [AZD2811] (first compound max 1 µM, 7x7, partner max 1 µM)
a: 0.0862

q: Ok, now Cc1cc2ncnn2cc1Nc1ncc2c(n1)n(C1CCOCC1)c(=O)n2C [AZD7648] + C[C@@H]1COCCN1C2=NC(=NC(=C2)C3(CC3)[S@](=N)(=O)C)C4=C5C=CNC5=NC=C4 [AZD6738] (first compound max 10 µM, 7x7, partner max 10 µM)
a: -0.0166

Entry source: the supplement of paper PMC11061612
